Values were extracted from ChEMBL document CHEMBL1124789.

The entries below come with measured ACE inhibition values attached.
- Tgt: Angiotensin-converting enzyme (Rattus norvegicus)
- Sequence (whole entry): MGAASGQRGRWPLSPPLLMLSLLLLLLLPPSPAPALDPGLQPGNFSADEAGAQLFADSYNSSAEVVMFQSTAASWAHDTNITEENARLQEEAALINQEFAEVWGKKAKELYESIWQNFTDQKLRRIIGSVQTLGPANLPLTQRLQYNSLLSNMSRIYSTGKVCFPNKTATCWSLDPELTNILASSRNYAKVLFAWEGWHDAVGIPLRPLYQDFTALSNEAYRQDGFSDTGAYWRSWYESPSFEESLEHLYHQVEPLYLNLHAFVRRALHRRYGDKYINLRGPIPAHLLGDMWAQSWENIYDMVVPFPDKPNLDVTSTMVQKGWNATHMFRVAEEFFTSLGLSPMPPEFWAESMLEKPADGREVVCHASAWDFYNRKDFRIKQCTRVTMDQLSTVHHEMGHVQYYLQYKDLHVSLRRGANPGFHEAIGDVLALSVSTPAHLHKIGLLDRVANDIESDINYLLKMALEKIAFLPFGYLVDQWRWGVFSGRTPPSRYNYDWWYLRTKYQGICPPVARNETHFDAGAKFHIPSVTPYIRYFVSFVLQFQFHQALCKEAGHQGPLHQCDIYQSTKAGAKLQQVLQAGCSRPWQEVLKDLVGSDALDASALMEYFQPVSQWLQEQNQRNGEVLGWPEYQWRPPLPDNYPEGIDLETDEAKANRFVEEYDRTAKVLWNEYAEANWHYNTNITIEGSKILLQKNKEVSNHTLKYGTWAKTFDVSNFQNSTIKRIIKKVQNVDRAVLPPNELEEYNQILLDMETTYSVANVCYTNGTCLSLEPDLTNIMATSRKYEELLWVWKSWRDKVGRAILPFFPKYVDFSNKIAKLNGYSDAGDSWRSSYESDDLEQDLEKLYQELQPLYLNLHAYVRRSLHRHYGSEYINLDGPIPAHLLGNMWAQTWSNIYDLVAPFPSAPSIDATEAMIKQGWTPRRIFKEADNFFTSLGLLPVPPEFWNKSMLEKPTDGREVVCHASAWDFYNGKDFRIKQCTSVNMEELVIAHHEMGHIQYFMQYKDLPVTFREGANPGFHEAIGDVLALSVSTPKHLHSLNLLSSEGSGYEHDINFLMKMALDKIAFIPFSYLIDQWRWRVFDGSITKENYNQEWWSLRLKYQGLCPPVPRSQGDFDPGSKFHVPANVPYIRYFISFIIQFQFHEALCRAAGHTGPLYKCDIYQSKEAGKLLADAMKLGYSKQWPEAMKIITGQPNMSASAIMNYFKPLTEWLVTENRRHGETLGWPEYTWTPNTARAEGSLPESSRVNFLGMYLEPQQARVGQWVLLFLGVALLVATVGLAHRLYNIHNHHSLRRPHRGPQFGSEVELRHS
- Protocol Description: Inhibition of Angiotensin I converting enzyme(ACE) at the dose of 30 mg/kg (po) in rat
- Format: organism-based
- Parameters: dose 30 mg/kg
Measured Attribute: ACE inhibition (%)

> print(dat)
                                   compound  lt.gt.eq  observed
1  C[C@H](N[C@@H](CCc1ccccc1)C(=O)O)C(=O)N(Cc1ccccc1)[C@H](CCCCNc1cc(Cl)c(S(N)(=O)=O)cc1C(=O)O)C(=O)O.Cl         =        50
2  C[C@H](N[C@@H](CCc1ccccc1)C(=O)O)C(=O)N(CC(=O)O)[C@H](C)C1Nc2cc(Cl)c(S(N)(=O)=O)cc2S(=O)(=O)N1 (some centres not stated)         <        30
3  C[C@H](N[C@@H](CCc1ccccc1)C(=O)O)C(=O)N(CC(=O)O)CC(=O)Nc1cc(C(=O)O)cc(S(N)(=O)=O)c1Cl.Cl         <        30
4  Cl.NCCCC[C@H](N[C@@H](CCc1ccccc1)C(=O)O)C(=O)N(CC(=O)O)CC1Nc2cc(Cl)c(S(N)(=O)=O)cc2S(=O)(=O)N1 (some centres not stated)         =        80
5  CCOC(=O)c1cc(S(N)(=O)=O)c(Cl)cc1NCCCC[C@H](C(=O)O)N(Cc1ccccc1)C(=O)[C@H](C)N[C@@H](CCc1ccccc1)C(=O)OCC.Cl         =        80
6  C[C@H](N[C@@H](CCc1ccccc1)C(=O)O)C(=O)N(CC(=O)O)CC1Nc2cc(Cl)c(S(N)(=O)=O)cc2S(=O)(=O)N1 (some centres not stated)         =        50
7  C[C@H](N[C@@H](CCc1ccccc1)C(=O)O)C(=O)N(CCCC1Nc2cc(Cl)c(S(N)(=O)=O)cc2S(=O)(=O)N1)CC(=O)O.Cl (some centres not stated)         =        50

----------
- Tgt: Angiotensin-converting enzyme (Rattus norvegicus, UniProt P47820)
- Protocol Description: In vitro inhibitory activity against Angiotensin I converting enzyme(ACE)

Compound	IC50
C[C@H](N[C@@H](CCc1ccccc1)C(=O)O)C(=O)N(CC(=O)O)C1CCC2(CC1)Nc1cc(Cl)c(S(N)(=O)=O)cc1S(=O)(=O)N2 (some centres not stated)	3.5 µM
C[C@H](N[C@@H](CCc1ccccc1)C(=O)O)C(=O)N(CC(=O)O)Cc1cc(C(C)(C)C)cc(I)c1O.Cl	0.16 µM
C[C@H](N[C@@H](CCc1ccccc1)C(=O)O)C(=O)N(CC(=O)O)CC1Nc2cc(Cl)c(S(N)(=O)=O)cc2S(=O)(=O)N1 (some centres not stated)	38 µM
Br.C[C@H](N[C@@H](CCc1ccccc1)C(=O)O)C(=O)N(C1CCC2(CC1)Nc1cc(Cl)c(S(N)(=O)=O)cc1S(=O)(=O)N2)C(CCCCN)C(=O)O (some centres not stated)	95 µM
C[C@H](N[C@@H](CCc1ccccc1)C(=O)O)C(=O)N(Cc1ccccc1)[C@H](CCCCNc1cc(Cl)c(S(N)(=O)=O)cc1C(=O)O)C(=O)O.Cl	0.68 µM
C[C@H](N[C@@H](CCc1ccccc1)C(=O)O)C(=O)N(Cc1ccccc1)[C@H](CCCCNc1cc(Cl)c(C(=O)O)cc1S(N)(=O)=O)C(=O)O.Cl	2.4 µM
C[C@H](N[C@@H](CCc1ccccc1)C(=O)O)C(=O)N(CC(=O)O)[C@H](C)C1Nc2cc(Cl)c(S(N)(=O)=O)cc2S(=O)(=O)N1 (some centres not stated)	2.7 µM
